system.under.test: T1, human GITR (amino acids M1-V241, NCBI Accession #NP_004186.1) expressed on cells (human, UniProt Q9Y5U5 26-241)
T1 sequence: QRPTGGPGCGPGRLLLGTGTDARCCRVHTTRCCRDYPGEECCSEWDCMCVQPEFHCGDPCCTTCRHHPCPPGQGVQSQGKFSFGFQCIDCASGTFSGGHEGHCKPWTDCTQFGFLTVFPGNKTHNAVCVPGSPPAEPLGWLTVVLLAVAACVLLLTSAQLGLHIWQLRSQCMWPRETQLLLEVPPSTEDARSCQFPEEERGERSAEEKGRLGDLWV
protocol.description: cell-based or functional assay
Would you kindly list % Blocking, NF-kB-Luc, non-anchored for each of these binders?
I'd appreciate it if you included the unit after the number.

Q: Please give the documented % Blocking, NF-kB-Luc, non-anchored of H1H14495P (antibody, human IgG1, V domains shown, human IgG1 (H1H)) VH: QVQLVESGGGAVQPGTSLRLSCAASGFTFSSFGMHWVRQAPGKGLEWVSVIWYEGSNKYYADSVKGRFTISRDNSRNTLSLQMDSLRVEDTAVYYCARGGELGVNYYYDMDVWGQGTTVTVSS VL: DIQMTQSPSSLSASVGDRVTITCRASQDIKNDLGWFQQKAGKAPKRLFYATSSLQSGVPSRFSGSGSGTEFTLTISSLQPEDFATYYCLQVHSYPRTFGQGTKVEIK
Ans: 80%

Q: Please give the documented % Blocking, NF-kB-Luc, non-anchored of H4H14528P (antibody, human IgG4, V domains shown, human IgG4 (H4H)) VH: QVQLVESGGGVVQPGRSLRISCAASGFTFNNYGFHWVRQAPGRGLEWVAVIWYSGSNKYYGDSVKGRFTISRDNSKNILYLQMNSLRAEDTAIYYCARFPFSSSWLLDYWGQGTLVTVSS VL: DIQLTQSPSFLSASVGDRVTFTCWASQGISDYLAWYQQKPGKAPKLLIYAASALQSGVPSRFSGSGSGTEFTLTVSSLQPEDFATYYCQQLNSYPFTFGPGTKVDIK
Ans: 90%

Q: Please give the documented % Blocking, NF-kB-Luc, non-anchored of H4H14521P (antibody, human IgG4, V domains shown, human IgG4 (H4H)) VH: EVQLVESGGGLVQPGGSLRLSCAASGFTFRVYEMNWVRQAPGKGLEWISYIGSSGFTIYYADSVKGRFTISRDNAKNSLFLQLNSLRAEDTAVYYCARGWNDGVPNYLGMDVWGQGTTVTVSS VL: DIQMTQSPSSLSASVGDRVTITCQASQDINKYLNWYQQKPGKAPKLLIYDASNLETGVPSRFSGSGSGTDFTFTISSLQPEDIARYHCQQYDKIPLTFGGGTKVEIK
Ans: 60%

Q: Please give the documented % Blocking, NF-kB-Luc, non-anchored of H4H14475P (antibody, human IgG4, V domains shown, human IgG4 (H4H)) VH: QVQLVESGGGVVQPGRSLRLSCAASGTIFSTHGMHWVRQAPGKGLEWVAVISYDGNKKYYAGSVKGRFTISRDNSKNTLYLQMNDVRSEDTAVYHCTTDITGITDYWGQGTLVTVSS VL: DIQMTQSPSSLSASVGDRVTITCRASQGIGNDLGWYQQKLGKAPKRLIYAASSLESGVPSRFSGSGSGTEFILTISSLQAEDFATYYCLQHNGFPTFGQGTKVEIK
Ans: -2%

Q: Please give the documented % Blocking, NF-kB-Luc, non-anchored of H4H14525P (antibody, human IgG4, V domains shown, human IgG4 (H4H)) VH: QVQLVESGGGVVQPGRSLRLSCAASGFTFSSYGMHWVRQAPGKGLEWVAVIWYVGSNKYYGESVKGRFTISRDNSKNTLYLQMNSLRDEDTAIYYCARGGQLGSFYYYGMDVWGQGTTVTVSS VL: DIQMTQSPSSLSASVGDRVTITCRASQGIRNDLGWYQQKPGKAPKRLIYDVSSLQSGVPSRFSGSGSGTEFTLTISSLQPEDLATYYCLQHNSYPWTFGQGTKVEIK
Ans: 70%
